MEASURED TARGET: human recombinant CB1 receptor (Homo sapiens, UniProt P21554)
Sequence (P21554 whole entry): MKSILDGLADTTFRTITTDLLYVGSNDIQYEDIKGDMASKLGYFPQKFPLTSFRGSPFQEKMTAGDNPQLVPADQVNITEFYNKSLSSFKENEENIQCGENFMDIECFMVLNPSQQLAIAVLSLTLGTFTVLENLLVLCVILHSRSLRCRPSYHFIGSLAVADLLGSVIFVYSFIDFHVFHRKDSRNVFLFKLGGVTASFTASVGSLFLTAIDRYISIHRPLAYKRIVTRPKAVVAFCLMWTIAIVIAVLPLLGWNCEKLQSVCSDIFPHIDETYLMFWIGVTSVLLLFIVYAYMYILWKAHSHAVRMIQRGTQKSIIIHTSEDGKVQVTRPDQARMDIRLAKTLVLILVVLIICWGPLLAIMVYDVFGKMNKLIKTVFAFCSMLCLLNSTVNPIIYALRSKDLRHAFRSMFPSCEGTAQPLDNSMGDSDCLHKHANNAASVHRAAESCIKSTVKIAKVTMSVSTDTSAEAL
MEASUREMENT DESCRIPTION: CB1 radioligand binding assay
CONDITION SUMMARY: [3H]CP 55940 competition; read-out: K (binding affinity) CB1 receptor
METRIC NAME: Ki

QUERY: Ki for O=C1COC[C@@H]([C@H](O)/C=C/C=C/C#C/C=C/[C@H](O)COc2ccc(F)cc2)O1 ?
RESULT: > 5 µM

====

MEASURED TARGET: human recombinant CB2 receptor (Homo sapiens)
Sequence (P34972 whole entry): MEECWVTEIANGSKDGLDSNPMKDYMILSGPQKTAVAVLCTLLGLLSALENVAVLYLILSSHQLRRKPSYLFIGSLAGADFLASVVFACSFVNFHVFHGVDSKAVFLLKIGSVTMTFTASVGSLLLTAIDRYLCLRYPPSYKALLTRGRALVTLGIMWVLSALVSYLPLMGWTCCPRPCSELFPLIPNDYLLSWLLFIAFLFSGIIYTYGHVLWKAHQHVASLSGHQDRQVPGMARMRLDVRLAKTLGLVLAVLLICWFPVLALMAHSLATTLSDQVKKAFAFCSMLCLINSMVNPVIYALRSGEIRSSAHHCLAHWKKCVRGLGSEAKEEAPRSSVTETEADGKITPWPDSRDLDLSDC
MEASUREMENT DESCRIPTION: CB2 radioligand binding assay
CONDITION SUMMARY: [3H]WIN 55212-2 competition; read-out: K (binding affinity) CB2 receptor
METRIC NAME: Ki (nM)
Numbers only, in nM.

QUERY: Ki for O=C1COC[C@@H]([C@H](O)/C=C/C=C/C#C/C=C/[C@H](O)COc2ccc(F)cc2)O1 ?
RESULT: 630
